Form field: folding enthalpy (one value per entry).
- assay.remarks: folding enthalpy; higher = less favourable; fluorescence melt of hairpins on a sequencing array, two-state fit
- experimental.context: sodium 0.088 M
quantity: folding enthalpy

| residue.string | observed.measurement |
| --- | --- |
| GGCAGTCGAAAGACCGCC (((.(((....))).))) | -35 kcal/mol |
| GGTAACGGAAACGTTGTC (..((((....))))..) | -16.8 kcal/mol |
| GATCGGCGAAAGCCAATC (((.(((....))).))) | -17.1 kcal/mol |
| GCCCGCGAAAGCGTTGGC ((((((....)))..))) | -23.2 kcal/mol |
| GTGACCGAAAGGTACCAC ((((((....)))..))) | -11.6 kcal/mol |
| GGTGTGGGAAACCGCATC (.((.((....)).)).) | -23.7 kcal/mol |

---

- assay.remarks: melting temperature; fluorescence melt of hairpins on a sequencing array, two-state fit, raised by 9.35 °C to match UV melts
- experimental.context: sodium 0.088 M

| residue.string | Tm |
| --- | --- |
| GGCTGGGGAAACCTAGCC ((((.((....)).)))) | 56.2 °C |
| GCGGTTCGAAAGAATCGC (((.(((....))).))) | 66.4 °C |
| GCGGACGAAAGTCGTCGC ((((((....)))..))) | 52.6 °C |
| GCCTAGCGAAAGCATGGC (((..((....))..))) | 61.2 °C |
| GTGAGCGAAAGCTCCAC ((((((....))).))) | 48.3 °C |
| GCGACGCGAAAGCTTGGC ((.(.((....)).).)) | 37.2 °C |
| GTCGAGGGAAACCTTGAC (((.(((....))).))) | 48.7 °C |
| GTGATGACGAAAGTCCAC (((..(((....)))))) | 35.1 °C |
| GCCTAGCGAAAGCAGGGC (((..((....))..))) | 62.4 °C |
| GTGGGTTCGAAAGAACAC (((..(((....)))))) | 57.4 °C |
| GCGAACCTTCGC ((((....)))) | 50.3 °C |
| GTCTTGGGAAACTGAGAC ((((..(....)..)))) | 35.1 °C |

---

Form field: folding enthalpy (one value per entry).
- assay.remarks: folding enthalpy; higher = less favourable; fluorescence melt of hairpins on a sequencing array, two-state fit
- experimental.context: sodium 0.088 M
quantity: folding enthalpy (kcal/mol)

| residue.string | units.label | observed.measurement |
| --- | --- | --- |
| GATCGCCAGTGCGATC ((((((....)))))) | kcal/mol | -34.9 |
| GGTATGCCGAAAGGCACC (((..(((....)))))) | kcal/mol | -9.19 |
| GTGTGGCGAAAGCCTCAC (((.(((....))).))) | kcal/mol | -29.7 |
| GATCTGAGACCAGATC ((((((....)))))) | kcal/mol | -32.9 |
| GCCTCGCGAAAGCGATGC ((.((((....)))).)) | kcal/mol | -16.7 |
| GTGGAGGCGAAAGCCCAC (((..(((....)))))) | kcal/mol | -17.1 |
| GATGACGAAAGTCTATC ((((((....))).))) | kcal/mol | -16.4 |
| GTATTGGGAAACCAGTAC (((.(((....))).))) | kcal/mol | -27.3 |
| GGAGAAGGAAACTTCCCC ((.((((....)))).)) | kcal/mol | -16.8 |
| GCCTGTGGAAACGCAGGC (((((.(....).))))) | kcal/mol | -38 |
| GGCCTCGAAAGAGGCGCC ((((((....)))..))) | kcal/mol | -6.36 |
| GATCGACCATTCGATC ((((((....)))))) | kcal/mol | -39.6 |
| GCGGCTCGAAAGAGCGC (((.(((....)))))) | kcal/mol | -20.1 |
| GCGGAGGGAAACTTCCGC (((((.(....).))))) | kcal/mol | -35.4 |
| GATCTAGTCTAGATC ((((((...)))))) | kcal/mol | -34.2 |
| GCGGGGCGAAAGCCAAGC ((..(((....)))..)) | kcal/mol | -27.7 |
| GCTGCGCGAAAGCCCCGC ((.(.((....)).).)) | kcal/mol | -9.96 |
| GCGTTCGCGAAAGCGCGC (((..(((....)))))) | kcal/mol | -19.3 |
| GGCGTCGAAAGACGCGCC ((((((....)))..))) | kcal/mol | -6.87 |
| GATCAGACGCCTGATC ((((((....)))))) | kcal/mol | -40.1 |
| GTACGCGAAAGCGCTTAC ((((((....)))..))) | kcal/mol | -9.36 |
| GTCATAGGAAACTGTGAC ((((.((....)).)))) | kcal/mol | -32.1 |
| GCATGGCGAAAGCGTTGC (((..((....))..))) | kcal/mol | -21.5 |
| GATCTGAGTCCAGATC ((((((....)))))) | kcal/mol | -30 |
| GCGACGTTTCGC ((((....)))) | kcal/mol | -17.9 |

---

- assay.remarks: melting temperature; fluorescence melt of hairpins on a sequencing array, two-state fit, raised by 9.35 °C to match UV melts
- experimental.context: sodium 0.088 M
Where Tm equals or exceeds 50 °C, the correct label is yes; where it does not, the label is no.

| residue.string | class.assignment |
| --- | --- |
| GCAGGCCGAAAGGCTTGC (((.(((....))).))) | yes |
| GATCTAAGTTTAGATC ((((((....)))))) | no |
| GGATTGGCGAAAGCCTCC (((..(((....)))))) | no |
| GTAGACGCGAAAGCGTAC (((..(((....)))))) | no |
| GGTCGGTCGAAAGACACC (((..(((....)))))) | no |
| GATCCGTGACCGGATC ((((((....)))))) | yes |
| GATGTCGGAAACGACACC (.(((((....))))).) | no |
| GATAAGCCGAAAGGCATC (((..(((....)))))) | no |
| GGAGCCGAAAGGCGTCC ((((((....))).))) | yes |
| GGTACCGCGAAAGCGACC (((..(((....)))))) | no |
| GATCCGCACACGGATC ((((((....)))))) | yes |
| GTCCACCGAAAGGTCGAC (((.(((....))).))) | no |
| GTCTCACGAAAGTGGGAC (((.(((....))).))) | yes |
| GATCACGGAAACGTGATC (((((((....))))))) | yes |
| GCGGGCGAAAGCCGCCGC ((((((....)))..))) | yes |
| GGGCCACGAAAGTGTCCC (((.(((....))).))) | yes |
| GCTCCGGGAAACTGGGGC ((.((.(....).)).)) | no |
| GAGTGACGAAAGTCCCTC (((.(((....))).))) | no |
| GCAACCTCGAAAGAGTGC (((..(((....)))))) | no |
| CGCAGCGGAAACGCCGCG (((.(((....))).))) | yes |
| GCTAGGCGAAAGCCTGGC ((.((((....)))).)) | yes |
| GACCCTGGAAACAGGGTC (((((((....))))))) | yes |
| GCAACGCGAAAGCTTCGC ((.(.((....)).).)) | no |
| GATCTCCGCAGAGATC ((((((....)))))) | yes |
| GCTAGGCGAAAGCGTTGC ((.(.((....)).).)) | no |
| GATCAACGTATTGATC ((((((....)))))) | no |
| GCGGCTAACCGC ((((....)))) | yes |
| GGGTGTGGAAACATACCC ((((.((....)).)))) | yes |
| GTTCGGGGAAACCCGGAC ((.((((....)))).)) | yes |
| GTGGTTGGAAACAACCAC (((((((....))))))) | yes |
| GCGGGGGGAAACCCCCAC (.(((((....))))).) | no |
| GCTTTCGAAAGAAAGC ((((((....)))))) | yes |
| GATCAATATTTGATC ((((((...)))))) | no |
| GTAATCGAAAGATGGTAC ((((((....)))..))) | no |
| GATCTAGAGATAGATC ((((((....)))))) | no |
| GCTGCGCGAAAGCCCCGC ((.(.((....)).).)) | no |
| GACACCGAAAGGTCTGTC ((((((....)))..))) | no |
| GCTACCGGAAACGGCAGC (((.(((....))).))) | yes |
| GCTCATCGAAAGATAGC (((.(((....)))))) | no |
| GGTTACGAAAGTAAAACC ((((((....)))..))) | no |
| GGCCACGGAAACGCGACC ((.(.((....)).).)) | no |
| GAGCACGGAAACGCGCTC ((((.((....)).)))) | yes |
| GACAAACGAAAGTTCGTC (((.(((....))).))) | no |
| GATCTATCTCTAGATC ((((((....)))))) | no |
| GCGATGGCGAAAGCCCGC (((..(((....)))))) | yes |
| GGGCCCTCGAAAGAGCCC (((..(((....)))))) | no |
| GTGCGAGCGAAAGCTCAC (((..(((....)))))) | yes |
| GGTGTTGGAAACAGCATC (.((.((....)).)).) | no |
